Assay: Approximate solubility in solvents by aliquot addition
Format: physicochemical
Settings: methanol, organic solvent or mixture, thermodynamic from solid, ambient temperature
Experimental readout: solubility

solubility for CC(=O)NC[C@H]1CN(c2ccc(-c3ccc(CNCc4cnn[nH]4)cc3)c(F)c2)C(=O)O1 ? < 1000 µg/mL

----------
System: S. aureus
Test: Minimum inhibitory concentrations (MICs) for S. aureus of exemplary compounds (Table 2)
Assay type: cell-based
Settings: Staphylococcus aureus, minimum inhibitory concentrations for S. aureus; read-out: MICs
From the text: Exemplary compounds in accordance with the invention are listed in Table 2 with their minimum inhibitory concentrations (MICs) (μg/mL) for S. aureus: Furthermore, the antibiotic compounds can be assayed for anti-proliferative or anti-infective properties on a cellular level. For example, where the target organism is a microorganism, the activity of compounds of interest can be assayed by growing the microorganisms of interest in media either containing or lacking the compound. […]
Experimental readout: MIC (µg/mL)
Could you give me the number in µg/mL? Just the number is fine.

Below, each entry is followed by its recorded MIC result.
Compound | Scale unit | MIC
CC(=O)NC[C@H]1CN(c2ccc(-c3ccc(CNS(=O)(=O)c4ccc(C(F)(F)F)cc4)cc3)c(F)c2)C(=O)O1 | µg/mL | 32
CC(=O)NC[C@H]1CN(c2ccc(-c3ccc(CN(C)Cc4cnc5ccccc5c4)cc3)c(F)c2)C(=O)O1 | µg/mL | 0.25
CC(=O)NC[C@H]1CN(c2ccc(-c3ccc(CNS(=O)(=O)CCN4C(=O)c5ccccc5C4=O)cc3)c(F)c2)C(=O)O1 | µg/mL | 8

Can you share its MIC? I mean this compound: CC(=O)NC[C@H]1CN(c2ccc(-c3ccc(CNCCSc4nncs4)cc3)c(F)c2)C(=O)O1 1
